meta.source: ChEMBL document CHEMBL1201862

I'd appreciate it if you could supply GI50 values for the items below.
# System: DU-145
# measurementNotes: NCI tumour cell line growth inhibition, 48 h
Activity calls are given as the source filed them. Rule as the data show it: active = GI50 up to about 1.1 µM and inactive = higher.

Inquiry: Which GI50 value belongs to `N#Cc1c(/C=C/c2ccccc2)c2c([nH]c1=S)CCCCC2` ?
Reply text: > 100 µM (inactive)

Inquiry: What does the data say about its GI50? Entry: `N#Cc1nc2ccccc2nc1N1CCN(c2ccc([N+](=O)[O-])cc2)CC1`
Reply text: > 100 µM (inactive)

Inquiry: What value of GI50 has been reported for the following molecule? `O=C1CCc2cc3c(cc21)CC1(Cc2cc4c(cc2C1)CCCC4)C3`
Reply text: > 100 µM (inactive)

Inquiry: Which GI50 is listed for `CC(=O)C(=C(c1ccccc1)c1ccccc1)c1ccccc1` ?
Reply text: > 100 µM (inactive)

Inquiry: Look up GI50: `Cc1cc2cc3c(cc2c(-c2ccc(N)cc2)n1)OCO3`
Reply text: 49.9 µM (inactive)

Inquiry: What value of measured GI50 is listed for `O=C1CNc2cc(N3CCN(c4cccc(C(F)(F)F)c4)CC3)ccc2N1` ?
Reply text: > 100 µM (inactive)

Inquiry: Any idea what its GI50 is? The molecule is NC1CC2C3CCC2C1C3=O (stereo unspecified)
Reply text: > 100 µM (inactive)

Inquiry: Which GI50 reading was recorded for the molecule `CC(=O)NNC(=S)N/C=C1/C(=O)Oc2ccccc2C1=O` ?
Reply text: > 100 µM (inactive)

Inquiry: Name the reported GI50 value associated with the molecule `N#CC(C#N)=C/C=C(\Sc1c(Cl)c(Cl)nc(Cl)c1Cl)c1ccc(Cl)cc1`
Reply text: 21.1 µM (inactive)

Inquiry: Consider the molecule CC/C=C\C/C=C\C/C=C\CCCCCCCC(=O)OC(COC(=O)CCCCCCCCCCCCCCCCC)COC1OC(CO)C(O)C(O)C1O (stereo unspecified) and give its measured GI50.
Reply text: > 25 µM (inactive)

Inquiry: Dear colleague, I am looking for the recorded GI50 of the following molecule: `Cc1cc(Cl)nc(NC(=O)CSc2ccc(Cl)cc2)n1`
Reply text: > 100 µM (inactive)

---

# System: HCT-15
Rule for this label: true (1) means GI50 is less than 20 µM; false (0) means GI50 is at least 20 µM.

Inquiry: Bench note: check whether `Nc1cc(O)c2c(c1O)C(=O)C=CC2=O` shows GI50 below 20 µM
Reply text: true (1)

Inquiry: I wonder whether CC(C)(C)c1ccc(S(=O)(=O)N2C(c3cccc(C4CC[C@@H](C(=O)O)N4S(=O)(=O)c4ccc(C(C)(C)C)cc4)c3)CC[C@H]2C(=O)O)cc1 (stereo not given in full) has GI50 below 20 µM. Can you tell?
Reply text: false (0)

Inquiry: Lab note: confirm whether the reported GI50 for this compound is below 20 µM, equality not counting. compound: `O=C(O)COc1c(Cl)cc(Cl)c(C(c2c(Cl)cc(Cl)c(OCC(=O)O)c2Cl)C(Cl)(Cl)Cl)c1Cl`
Reply text: false (0)

Inquiry: A record lists `CCOC(=O)c1cc(Sc2ccc(N)c(C(=O)OCC)c2)ccc1N` . Is its GI50 below 20 µM?
Reply text: false (0)

Inquiry: Field: below-cutoff. Rule: recorded GI50 strictly less than 20 µM. Subject: `CCc1n[nH]c(=O)n1/N=C(\C)c1ccc([N+](=O)[O-])cc1`
Reply text: false (0)

Inquiry: State whether 20 µM exceeds GI50 recorded for `Fc1cccc2nc(-c3ccccc3)cc(OCc3ccccc3)c12` .
Reply text: false (0)

Inquiry: Hello, I'm reviewing records and need to know if GI50 of O=C([O-])Cc1ccccc1.[Na+] [SODIUM PHENYLACETATE] is below 20 µM. Could you check?
Reply text: false (0)

Inquiry: Does Cc1cccc2c1C(=O)C(C1OC(=O)c3ccccc31)C2 (stereo not given) have GI50 strictly under 20 µM?
Reply text: false (0)

Inquiry: Please determine if CN1C(c2ccccc2)CC(=Nc2ccccc2)CC1c1ccccc1 (stereo not given) is below 20 µM in terms of GI50.
Reply text: true (1)

---

# System: NCI-H23
# measurementNotes: NCI tumour cell line growth inhibition, 48 h
The source made the active and inactive calls. No stated cut-off is given here; in the data, active = GI50 up to about 1.1 µM and inactive = higher.
Exercise: state measured GI50 for each of the molecules provided.

Inquiry: // lookup GI50 for Cc1cccc(C)c1NC(=O)C1=NC(=S)NC(c2ccccc2)C1c1nc2ccccc2s1 (configuration not stated)
Reply text: > 100 µM (inactive)

Inquiry: State the recorded GI50 for this entry: `COc1ccc(C(N)=O)c(OC)c1OCc1ccccc1`
Reply text: 9.51 µM (inactive)

Inquiry: Please give the measured GI50 for this molecule: CC(SC(=S)N1CCOCC1)C(=O)Nc1nnc(-c2ccccc2)o1 (configuration not stated)
Reply text: > 100 µM (inactive)

Inquiry: Which GI50 is listed for `Cc1cccc2c1nc1n2C(=O)c2ccccc2-1` ?
Reply text: > 100 µM (inactive)

Inquiry: Any idea what GI50 was measured for `CC1=Cc2ccc(C)cc2C(=O)C1=O` ?
Reply text: 17.3 µM (inactive)

Inquiry: Query (molecule): COc1nc(=O)n(C2CC(F)C(CO)O2)cc1C (configuration not stated) ; field requested: GI50
Reply text: > 100 µM (inactive)

Inquiry: Sample NC1CC2C3CCC2C1C3=O (configuration not stated) — what was its GI50?
Reply text: > 100 µM (inactive)

Inquiry: Can you look up the measured GI50 of `O=C(C=P(c1ccccc1)(c1ccccc1)c1ccccc1)c1cccc(-c2cccc([N+](=O)[O-])c2)c1` for me?
Reply text: 3.44 µM (inactive)

Inquiry: Quick check: GI50 of `O=S(=O)(O)CCCc1cccc2ccccc12` ?
Reply text: > 100 µM (inactive)

Inquiry: Name the recorded GI50 for CCCCCCCCCCCCCCCCCCOCC(O)COP(=O)(O)OCC1OC(n2cc(F)c(=O)[nH]c2=O)CC1O (configuration not stated) .
Reply text: 2.97 µM (inactive)

Inquiry: What value of measured GI50 is listed for `CC(C)OC(=O)c1ccc(NCC2=CC(=O)C=CC2=O)cc1Cl` ?
Reply text: 13.2 µM (inactive)

Inquiry: Which GI50 is reported for this molecule? CC12CCC(C(=O)OC1=O)C2(C)C (configuration not stated)
Reply text: 1.67 µM (inactive)

---

# System: HL-60
# measurementNotes: NCI tumour cell line growth inhibition, 48 h
The source made the active and inactive calls. No stated cut-off is given here; in the data, active = GI50 up to about 1.1 µM and inactive = higher. Residues, ends and D or L forms follow the SMILES beside them.
metric: GI50

Inquiry: Given the entry CCC(C)C(NC(=O)C(CC(C)C)NC(=O)CNC(=O)C(NC(=O)C1CCCN1C(=O)C(CC(C)C)NC(=O)C(N)Cc1ccccc1)C(C)CC)C(=O)NC(CC(C)C)C(N)=O (centres undefined) (H-FLPIGLIL-NH2; configuration not given here) , report its measured GI50.
Reply text: > 75 µM (inactive)

Inquiry: Field request: GI50 | item: `CCOC(=O)/C=C(\C(=O)OCC)n1ccc(=O)[nH]c1=O`
Reply text: 2.44 µM (inactive)

Inquiry: What GI50 value was documented for this compound, `COC(=O)[C@@H]1C[C@H]([Se]c2ccccc2)CN1S(=O)(=O)c1ccc(C)cc1` ?
Reply text: 36.3 µM (inactive)

Inquiry: Field request: GI50 | item: `ClCCN(CC#CCCCC#CCN(CCCl)CCCl)CCCl`
Reply text: 1.26 µM (inactive)

Inquiry: I have this compound here, COc1cc(C2SCC(=O)N2c2ccc(-c3ccc(-n4c(-c5ccccc5)nc5ccccc5c4=O)cc3)cc2)ccc1O (centres undefined) , and I need its recorded GI50.
Reply text: 65.3 µM (inactive)

Inquiry: Which value of GI50 has been reported for CC(C)Cc1ccc(C(C)/C=C2\CCC(CN3CCOCC3)C2=O)cc1 (centres undefined) in the records?
Reply text: 2.69 µM (inactive)

Inquiry: Given the compound `CCN(CC)CSc1nc2ccccc2o1` , what is its reported GI50?
Reply text: > 100 µM (inactive)

Inquiry: // lookup GI50 for Cc1ccc(C)c(N2C/C(=N\NC(=O)CC#N)C(c3nc4ccccc4s3)C(=O)C2=O)c1 (centres undefined)
Reply text: > 100 µM (inactive)

Inquiry: Which measured GI50 value corresponds to CN(C)/C=N/c1nc2c(ncn2C2OC(CO)C(O)C2O)c(=O)[nH]1 (centres undefined) ?
Reply text: > 100 µM (inactive)

---

# Tested on: HCC 2998
# measurementNotes: NCI tumour cell line growth inhibition, 48 h
Active and inactive are the calls of the source. No stated cut-off is given here; in the data, active = GI50 up to about 1.1 µM and inactive = higher.
metric: GI50

Inquiry: Param item = CCOC(=O)C(Cc1cn(C(C)=O)c2ccccc12)P(=O)(OCC)OCC (stereo not given) ; retrieve measured GI50.
Reply text: > 100 µM (inactive)

Inquiry: I'd like to know its GI50. The compound in question is CC1=C(C(=O)OC23CC4CC(CC(C4)C2)C3)C(c2ccccc2OC(F)F)C(C(=O)OC23CC4CC(CC(C4)C2)C3)=C(C)N1 (stereo not given)
Reply text: > 100 µM (inactive)

Inquiry: Given the entry `N#Cc1nc2ccccc2nc1N1CCN(c2ccc([N+](=O)[O-])cc2)CC1` , report its measured GI50.
Reply text: > 100 µM (inactive)

Inquiry: Need GI50 of `O=c1cc(/N=N/c2ccc(O)cc2)[nH]c(=O)[nH]1` , thanks.
Reply text: 29.7 µM (inactive)

Inquiry: // returns reported GI50 for input `CCNCCCCNCCCCNCCCCNCCCCNCC`
Reply text: > 100 µM (inactive)
